B1: DnaJ homolog subfamily C member 2, residues 451 to 503; numbered along this chain, Q99543 (parent)
chain: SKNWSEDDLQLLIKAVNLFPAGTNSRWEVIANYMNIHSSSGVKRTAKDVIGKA

- Variants of: B1
- measurement protocol: abundance fitness (aPCA) (normalised: wild type 0, dead -1); higher = more abundant; growth selection in yeast, the domain comes from the species named
- measurement conditions: Homo sapiens
Class condition met: abundance fitness at least -0.4. Class condition not met: abundance fitness below -0.4.

Consider the worked cases shown below.
SKNWSEDDLQLLIKAVNLFPAGTNSRWEVIANYMNIHSSSGVKRTAKEVIGKA [D48E] | condition met
SKNWSEDDLQLLIKAVNLFPAGTNSRWEVIANRMNIHSSSGVKRTAKDVIGKA [Y33R] | condition not met
SKNWSEDDLQLLIKAVNLFPAGTNSRWEVIANYMNIHSSSGVKRTAKDDIGKA [V49D] | condition not met
SKNWSEDDLQLLIKAVNLFPAGTNSRWEVIANYMNIHSASGVKRTAKDVIGKA [S39A] | condition met
SKNWSEDDLQLLIKAVNLFPAGTNSRWEVIANYMRIHSSSGVKRTAKDVIGKA [N35R] | condition not met
SKNWSEDDLQLLIKAVNLFPAGTNSRWEVIANYMNIHSSSGVHRTAKDVIGKA [K43H] | condition met

Qu. Record SKNWSEDDLQLLIKAVNLFPAGTNSRWEVIANYMNIHSSSGVKRTAKDVIGSA [K52S] ; criterion: abundance fitness no lower than -0.4. Met?
Ans. condition met

Qu. Is the recorded value of abundance fitness equal to or greater than -0.4 for this variant? SKNWSEDDLQLLIKRVNLFPAGTNSRWEVIANYMNIHSSSGVKRTAKDVIGKA [A15R]
Ans. condition not met

Qu. hey, is abundance fitness for this one >= -0.4? SKNMSEDDLQLLIKAVNLFPAGTNSRWEVIANYMNIHSSSGVKRTAKDVIGKA [W4M]
Ans. condition met

Qu. hey, is abundance fitness for this one >= -0.4? SKNWSEDDLQLLIKAVNLFPAGTNSRWEVIANYMNIHSSSGVKRTAEDVIGKA [K47E]
Ans. condition met

Qu. Confirm if abundance fitness reported for the variant SKDWSEDDLQLLIKAVNLFPAGTNSRWEVIANYMNIHSSSGVKRTAKDVIGKA [N3D] is -0.4 or above.
Ans. condition met

Qu. # check: abundance fitness of SKNWSEDDLQLLIKAVNLFPAGTNSRWEVIANYMNIYSSSGVKRTAKDVIGKA [H37Y] is greater than or equal to -0.4
Ans. condition met

Qu. Check if abundance fitness >= -0.4 (inclusive). Item: SKEWSEDDLQLLIKAVNLFPAGTNSRWEVIANYMNIHSSSGVKRTAKDVIGKA [N3E]
Ans. condition not met

Qu. Does SKNWSEDDLQLLIKAVNLFPAGTNSRWEVIANYMNIHSSCGVKRTAKDVIGKA [S40C] have a reported abundance fitness of at least -0.4?
Ans. condition met

Qu. Does abundance fitness meet or surpass -0.4 for SKNWSEDDLQLLIKAVNLFPAGTNSRWEVIANYMNIHSSSGVKRTAKFVIGKA [D48F] ?
Ans. condition not met

Qu. Does the reported abundance fitness for SKNWSEDDLQLLIKAVNKFPAGTNSRWEVIANYMNIHSSSGVKRTAKDVIGKA [L18K] fall at or above the -0.4 mark?
Ans. condition met

Qu. Item SKNTSEDDLQLLIKAVNLFPAGTNSRWEVIANYMNIHSSSGVKRTAKDVIGKA [W4T] with abundance fitness of -0.4 or above?
Ans. condition not met

Qu. Would you say SKNWSRDDLQLLIKAVNLFPAGTNSRWEVIANYMNIHSSSGVKRTAKDVIGKA [E6R] shows abundance fitness at minimum -0.4?
Ans. condition not met

Qu. // inclusive: abundance fitness at least -0.4? input: SKNWSEDDLQLLIKAVNLFPAGTNSRWEVIANYMNIHSSSGVKRTAKDVIGLA [K52L]
Ans. condition met

Qu. Is reported abundance fitness greater than or equal to -0.4 here: SKNPSEDDLQLLIKAVNLFPAGTNSRWEVIANYMNIHSSSGVKRTAKDVIGKA [W4P]
Ans. condition not met
